Here, each record is paired with measured IC50 data.
# ASSAY_SUMMARY: Cytotoxicity against human A549 cells assessed as reduction in cell survival
# Type: toxicity, cell-based
READOUT_LABEL: IC50 (µg/mL)

C/C(=N\NC(=N)N)c1ccc(Oc2ccc(/C(C)=N/NC(=N)N)cc2)cc1.Cl.Cl = 3.9
C[C@@H]1[C@H](O)[C@@H](C)/C=C/C=C/C=C/C=C/C=C/C=C/C=C/[C@H](O[C@@H]2O[C@H](C)[C@@H](O)[C@H](N)[C@@H]2O)C[C@@H]2O[C@](O)(C[C@@H](O)C[C@@H](O)[C@H](O)CC[C@@H](O)C[C@@H](O)CC(=O)O[C@H]1C)C[C@H](O)[C@H]2C(=O)O = 18.2
Cl.N#Cc1ccc(N/N=C/c2ccc(-c3ccc(/C=N/NC(=N)N)cc3)cc2)cc1 = 4.2
C/C(=N\NC(=N)N)c1ccc2c(c1)Cc1cc(/C(C)=N/NC(=N)N)ccc1-2.Cl.Cl = 2.5
Cl.Cl.N=C(N)N/N=C/c1ccc(-c2ccc(/C=N/NC(=N)N)cc2)cc1 = 6.6
C/C(=N\NC(=N)N)c1ccc(CCc2ccc(/C(C)=N/NC(=N)N)cc2)cc1.Cl.Cl = 2.9
Cl.Cl.N=C(N)N/N=C/c1ccc(-c2cccc(/C=N/NC(=N)N)c2)cc1 = 13.9
